# Tested on: MS2 coat protein
# test-details: apparent KD of MS2 coat protein; designed switch direction (-1 OFF switch, 1 ON switch): 1; higher = weaker reporter binding
# measurement-parameters: Eterna round: R95; input ligand: FMN 200 uM
Field: apparent KD of MS2 coat protein. Provide a value for each of the sequences that follow.
Report as a plain number; the unit µM is understood.

Note down apparent KD of MS2 coat protein recorded for CGAUCAUACUCAGGACGGAGAGUAGAGGAACAUGAGGAUCACCCAUGUAUGAGCUUUUUGCUCGUCAUGAACAGGAG [JR_SHM208a_Sub010] (puzzle: Sensor for hsa-mir-208a)
0.0672

Note down apparent KD of MS2 coat protein recorded for AAUAUACAUGAGGAUCACCCAUGUUAGUAAAUGACAGGAUAUGCAAUAAAUAAAUAAUAAGCAGAAGGGUCUAAUA [JMF's solution 1] (puzzle: Same State 1)
0.0137

Note down apparent KD of MS2 coat protein recorded for CUAUCUACAGGUGUCAGUGCUCGUCUUAUACAUGAGGAUCACCCAUGUUAUAGCCCGGUGCUUGCGCUGGGCUGAUU [JL ViennaUCT Tearor mod 4] (puzzle: Sensor for hsa-mir-208a)
0.0548

Note down apparent KD of MS2 coat protein recorded for AUCAAUCUAUCUGAGGAUAUCAUGAAAUAAACAUGAGGAUCACCCAUGUGCAGGAAAACUGCAUAUGAGAAGGCAGAUAGAUUGA [salish99_ss2_r3_019] (puzzle: Same State 2)
0.0639

Note down apparent KD of MS2 coat protein recorded for CCGCGCUGUCGAGAGGAUAUGCGGUGAUGGACAUGAGGAUCACCCAUGUUAGCGAUAGCAUUACUGUAGAAGGCUCUACGGCGGC [JL-ss2-3.09 ViennaUCT mod] (puzzle: Same State 2)
0.0122

----------
# System: MS2 coat protein
# test-details: apparent KD of MS2 coat protein; designed switch direction (-1 OFF switch, 1 ON switch): 1; higher = weaker reporter binding
# measurement-parameters: Eterna round: R95; input ligand: FMN 200 uM
Rule: apparent KD of MS2 coat protein under 30 nM gives False, otherwise True.

Threshold query (apparent KD of MS2 coat protein >= 30 nM) on AUAAUAAUAAGUCAGGAUAUGUUGAUAAAGACAUGAGGAUCACCCAUGUGAAAUAAAAUAAUAAUACAGAAGGGACAAUAAUAAA [JMF's solution 3] (puzzle: Same State 2)
True

Threshold query (apparent KD of MS2 coat protein >= 30 nM) on GAGUAGGACUUACAGGAUAUAUGGAGGUUGACAUGAGGAUCACCCAUGUCUGAGUUGGGAGGAGGAUAGAAGGGUAUGAGAGGCG [JR_SS2_Sub031] (puzzle: Same State 2)
False

Threshold query (apparent KD of MS2 coat protein >= 30 nM) on AUAAGGCAAGCUUUUUUCUCGUAGUAUAAACAUGAGGAUCACCCAUGUGCCUACCCUGGAUCUUUGGAUCGCAGAAA [Ravebiat] (puzzle: Sensor for hsa-mir-208a)
False

Threshold query (apparent KD of MS2 coat protein >= 30 nM) on UAUAAACAUGAGGAUCACCCAUGUAAUAAUAUGGGAGGAUAUCAGAAUGUAUUUAUUUAAUGAGAAGGCCUAAUAU [Mat - Same State 1 - Mod of Eli - D68] (puzzle: Same State 1)
True

Threshold query (apparent KD of MS2 coat protein >= 30 nM) on AGAAAACAUGAGGAUCACCCAUGUAUAGUGAAUACAGGAUAUCACCGACGGAAUAAUUGGUGAGAAGGGUGAUCGC [Ceaqu] (puzzle: Same State 1)
False

----------
# System: K4 kissing-loop RNA reporter;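 note: bound reporter read as fluorescence of individual clusters on recovered sequencing chips by microscopy, with normalized cluster intensities fitted with a binding model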
# test-details: apparent KD of K4 kissing-loop reporter; higher = weaker reporter binding
# measurement-parameters: Eterna round: R107; input ligand: FMN 200 uM
quantity-name: apparent KD of K4 kissing-loop reporter
A bare number is not enough; add the unit after it.

Note down apparent KD of K4 kissing-loop reporter recorded for GAUUCAGUGAUGUUGGAAGGCGAGCGGGAUACCAGCCAAGACUCAGGCCCUUGGCAGCCCACAUAUCCCAGGUAGAUAGUAGCUC [Same State - Theophylline A (Freestyle 12)]
168 nM

Note down apparent KD of K4 kissing-loop reporter recorded for ACGCUAGCUACCGAAAGGUAGCUAGCGAGUGAGGAUAUGUGGAAACACAGAAGGCACAGCACAGUGAUGUUGUGCGGCGAAAGCC
587 nM

Note down apparent KD of K4 kissing-loop reporter recorded for AAUAAUAGUUGAGCAGGCGUGGUCUGAGAUACCAGUGAUUUCGAUCACCCUUGGCAGCUCAGCAUGAGUGAUGUUCAUGCUAUUC [Theo A Ex t10]
147 nM

----------
# Tested on: MS2 coat protein
# test-details: apparent KD of MS2 coat protein, switch ON state; designed switch direction (-1 OFF switch, 1 ON switch): -1; higher = weaker reporter binding
# measurement-parameters: FMN input: 0 or 200 uM; Eterna round: R93 (includes R88 designs)
Rule: apparent KD of MS2 coat protein under 30 nM gives F, otherwise T.

Threshold query (apparent KD of MS2 coat protein >= 30 nM) on AGUAUGCGAGGAUAUACAUGAGGAUCACCCAUGUGAGAGAUAAAAGUGAGAAAGAAAAGUAGAAGGCGCGUACA [JL Lego Mod 21]
T

Threshold query (apparent KD of MS2 coat protein >= 30 nM) on GUGGAACAUGAGGAUCACCCAUGUGAGGAUAUAGGUUUUUGGGAAAAACUAGGAGAAACUAGAAGGCGCAAGAA [Exclusion 1.1]
F

Threshold query (apparent KD of MS2 coat protein >= 30 nM) on AGUCAUACAGGAUAUACAUGAGGAUCACCCAUGUAAAUCCUAAAAAAGUGAUCCUCAUGUAGAAGGGUAUGACA [EX3 220: Super Stable 20]
F

Threshold query (apparent KD of MS2 coat protein >= 30 nM) on AAAGAUUGAGGAUAUACAUGAGGAUCACCCAUGUAAAAAAAAAAAAGGGUGGAAGAAAGUAGAAGGCAACAAAA [Ex 3 May 46]
T

Threshold query (apparent KD of MS2 coat protein >= 30 nM) on GGUUGGCGAGGAUAUACAUGAGGAUCACCCAUGUGAGAGAAAUAAGUGAGAAAGAAAAGUAGAAGGCGCUGACG [salish99-ex3-43]
T

Threshold query (apparent KD of MS2 coat protein >= 30 nM) on GAAAAACAUGAGGAUCACCCAUGUCAGGAUAUCGAAAAAAAUAAAAAAGAAAAGAAAACGAGAAGGGACAAAAA [May 12]
F

Threshold query (apparent KD of MS2 coat protein >= 30 nM) on GAUAGUGAAGGAUAUACUGGAGGAGUGCGAUAGAAGAAAGAACAUGAGGAUCACCCAUGUAGAAGGUCAGAAGU [JR_Exc002_Sub1225]
T

Threshold query (apparent KD of MS2 coat protein >= 30 nM) on AAGAGGUCAGGAUAUGCCCACCAGGAAAAACGUCCAGGUGGGCAGAAGGGACAUGAGGAUCACCCAUGUAAAGA [Opal 41]
T

Threshold query (apparent KD of MS2 coat protein >= 30 nM) on CUUAUGUCAGGAUAUCAGUAGUAAAAAAAUAAAAUUACUACUGAGAAGGGACAUGAGGAUCACCCAUGUCCGGG [EX4 369: Super Stable 69]
T

Threshold query (apparent KD of MS2 coat protein >= 30 nM) on AGUUGGCGAGGAUAUACAUGAGGAUCACCCAUGUAAAAUAAAUAAAAAAGGGAAGAAAGUAGAAGGCGCUGACA [73%, Moding Norbert Elias, 11]
T

Threshold query (apparent KD of MS2 coat protein >= 30 nM) on AGGUGACAUGAGGAUCACCCAUGUCAGGAUAUAUACACCACCGGCGUGAAGCCGGCGGAUAGAAGGGACAAAAU [Anesar]
F

Threshold query (apparent KD of MS2 coat protein >= 30 nM) on AGCUGGUCAGGAUAUGCGUGAAGAAUAAAACAAAUAACAACGCAGAAGGGACAUGAGGAUCACCCAUGUCAGCA [May 50]
F

Threshold query (apparent KD of MS2 coat protein >= 30 nM) on AAAAAGAGAGGAUAUACAUGAGGAUCACCCAUGUGAAAGACGAAAAAAAGUCUAAAGUGUAGAAGGCUCAAAAA [65%, Moding Exclusion3-cac2, 14]
F

Threshold query (apparent KD of MS2 coat protein >= 30 nM) on AAGAAACAUGAGGAUCACCCAUGUCAGGAUAUUGAAAAGAAAAGAAAAGAAAGAAGAACAAGAAGGGACAAAGG [Neferkare (III) Neby]
T

Threshold query (apparent KD of MS2 coat protein >= 30 nM) on AACUGACAUGAGGAUCACCCAUGUCAGGAUAUGACAUCGAAAAAAAAAAAAAUCGUUGUCAGAAGGGACAUGGG [Design 73: Sub-opt QB]
F

Threshold query (apparent KD of MS2 coat protein >= 30 nM) on AAAAACUGAGGAUAUACAUGAGGAUCACCCAUGUGAAAGAACGAAAAACGAAAAGCAAGUAGAAGGCAGAAAAA [Ruby 77]
F

Threshold query (apparent KD of MS2 coat protein >= 30 nM) on AUAAAGUCAGGAUAUGUAAAAAUAACGAAAGUUAUAAAUAAACAGAAGGGACAUGAGGAUCACCCAUGUACAAU [Opal 15]
F

Threshold query (apparent KD of MS2 coat protein >= 30 nM) on CAAUCUGCAGGAUAUACAUGAGGAUCACCCAUGUAAGGACAAUAAAUAAGAAGAAGAAGUAGAAGGGCAGACAA [e3]
F

Threshold query (apparent KD of MS2 coat protein >= 30 nM) on CAUUCACAUGAGGAUCACCCAUGUAAGGAUAUCGAAAUAAAACUAAUCAAUAAACAAACGAGAAGGUACAAAAA [Exclusion 1 design 9]
F

Threshold query (apparent KD of MS2 coat protein >= 30 nM) on AUAAUGUCAGGAUAUCAGUAGUAAAAAAAAAAAAUUACUACUGAGAAGGGACAUGAGGAUCACCCAUGUCAAAA [EX4 307: Super Stable 7]
F

Threshold query (apparent KD of MS2 coat protein >= 30 nM) on AACAGUACAGGAUAUACAUGAGGAUCACCCAUGUGAAAGAAAAGUGGCGUACCACAAAGUAGAAGGGUACUGGA [Mat - Exclusion 3 - JL mod - D23]
F

Threshold query (apparent KD of MS2 coat protein >= 30 nM) on AUCUAGUCAGGAUAUGACUACAUAAAAAAUAAAAAAUGUAGUCAGAAGGGACAUGAGGAUCACCCAUGUACUAA [Mat - Exclusion 4 - Eli mod - D95]
F

Threshold query (apparent KD of MS2 coat protein >= 30 nM) on UCCUGACAUGAGGAUCACCCAUGUCAGGAUAUAGUAUGAAAAAAAAAAAAAAAAAAUACUAGAAGGGACAAGGG [Design 13: Super Stable Short Helix 4]
F
